tested on: Staphylococcus aureus 1840; experiment: Minimal inhibitory concentration, agar serial dilution; type: cell-based; conditions: TSA, inoculum 10^7 /ml
measure: Minimal inhibitory concentration (MIC)
No unit in the answer, only the number.

[ask] Provide measured Minimal inhibitory concentration (MIC) on Staphylococcus aureus 1840 for Cn1nnnc1SCC1=C(C(=O)O)N2C(=O)C(NC(=O)/C(=N\O)c3csc(=N)[nH]3)C2SC1 (centres unmarked) please.
[reply] 0.78

[ask] Enter recorded Minimal inhibitory concentration (MIC) with Staphylococcus aureus 1840 for O=C(Cc1cccs1)N[C@@H]1C(=O)N2C(C(=O)[O-])=C(C[n+]3ccccc3)CS[C@H]12 [Cephaloridine, reference compound] here.
[reply] 0.39

[ask] Report its Minimal inhibitory concentration (MIC) with Staphylococcus aureus 1840 as the test system: N=c1[nH]c(/C(=N/O)C(=O)NC2C(=O)N3C(C(=O)O)=C(CSc4cnn[nH]4)CSC23)cs1 (centres unmarked)
[reply] 0.78

[ask] Provide Staphylococcus aureus 1840 Minimal inhibitory concentration (MIC) reading for CC(=O)OCC1=C(C(=O)O)N2C(=O)C(NC(=O)/C(=N\O)c3csc(=N)[nH]3)C2SC1 (centres unmarked) .
[reply] 0.39

[ask] Enter recorded Minimal inhibitory concentration (MIC) with Staphylococcus aureus 1840 for Cn1cnnc1SCC1=C(C(=O)O)N2C(=O)C(NC(=O)/C(=N\O)c3csc(=N)[nH]3)C2SC1 (centres unmarked) here.
[reply] 0.78

[ask] Write down the reported Minimal inhibitory concentration (MIC) (system: Staphylococcus aureus 1840) of N=c1[nH]c(C(=NO)C(=O)NC2C(=O)N3C(C(=O)[O-])=C(C[n+]4ccc(C(N)=O)cc4)CSC23)cs1 (centres unmarked)
[reply] 0.39

[ask] Provide Staphylococcus aureus 1840 Minimal inhibitory concentration (MIC) reading for Cc1nsc(SCC2=C(C(=O)O)N3C(=O)C(NC(=O)/C(=N\O)c4csc(=N)[nH]4)C3SC2)n1 (centres unmarked) .
[reply] 0.78

[ask] Name the recorded Minimal inhibitory concentration (MIC) of CC(=O)OCC1=C(C(=O)[O-])N2C(=O)C(NC(=O)Cc3cccs3)[C@H]2SC1.[Na+] (some centres unmarked) [Cephalothin, reference compound] , assay system Staphylococcus aureus 1840.
[reply] 0.39

[ask] Provide the reported Minimal inhibitory concentration (MIC) (system: Staphylococcus aureus 1840) for Cc1nnc(SCC2=C(C(=O)O)N3C(=O)C(NC(=O)/C(=N\O)c4csc(=N)[nH]4)C3SC2)s1 (centres unmarked)
[reply] 0.78

[ask] Please tell me the measured Minimal inhibitory concentration (MIC) for Cc1nnc(SCC2=C(C(=O)[O-])N3C(=O)C(NC(=O)Cn4cnnn4)[C@H]3SC2)s1.[Na+] (some centres unmarked) [Cefazolin, reference compound] ; system: Staphylococcus aureus 1840.
[reply] 1.56

[ask] Lab note: record Minimal inhibitory concentration (MIC) of N=c1[nH]c(/C(=N/O)C(=O)NC2C(=O)N3C(C(=O)O)=C(COC(N)=O)CSC23)cs1 (centres unmarked) tested on Staphylococcus aureus 1840.
[reply] 0.78

* * *

Please go through the items and note down their Minimal inhibitory concentration (MIC).
test system: Escherichia coli NIHJ JC-2; assay: Minimal inhibitory concentration, agar serial dilution; assay type: cell-based; settings: TSA, inoculum 10^7 /ml
Reply with the value as a number alone.

[ask] For Cc1nnc(SCC2=C(C(=O)O)N3C(=O)C(NC(=O)/C(=N\O)c4csc(=N)[nH]4)C3SC2)s1 (stereo not shown) , write its Minimal inhibitory concentration (MIC).
[reply] 0.10

[ask] Return Minimal inhibitory concentration (MIC) (reported value) for this molecule: N=c1[nH]c(/C(=N/O)C(=O)NC2C(=O)N3C(C(=O)O)=C(COC(N)=O)CSC23)cs1 (stereo not shown)
[reply] 0.05

[ask] Kindly indicate its recorded Minimal inhibitory concentration (MIC). Item: Cn1nnnc1SCC1=C(C(=O)O)N2C(=O)C(NC(=O)/C(=N\O)c3csc(=N)[nH]3)C2SC1 (stereo not shown)
[reply] 0.05

[ask] Look up Minimal inhibitory concentration (MIC) of Cn1cnnc1SCC1=C(C(=O)O)N2C(=O)C(NC(=O)/C(=N\O)c3csc(=N)[nH]3)C2SC1 (stereo not shown) and report it.
[reply] 0.024

[ask] Please look at this molecule and report its Minimal inhibitory concentration (MIC): Cc1nsc(SCC2=C(C(=O)O)N3C(=O)C(NC(=O)/C(=N\O)c4csc(=N)[nH]4)C3SC2)n1 (stereo not shown)
[reply] 0.39

[ask] Indicate the recorded Minimal inhibitory concentration (MIC) value for this molecule: CC(=O)OCC1=C(C(=O)[O-])N2C(=O)C(NC(=O)Cc3cccs3)[C@H]2SC1.[Na+] (stereo partly shown) [Cephalothin, reference compound]
[reply] 12.5

[ask] Tell us which Minimal inhibitory concentration (MIC) value is on record for CC(=O)OCC1=C(C(=O)O)N2C(=O)C(NC(=O)/C(=N\O)c3csc(=N)[nH]3)C2SC1 (stereo not shown)
[reply] 0.024

These entries and their values trace back to patent US4963542A.
